We begin with a simple list: items and their reported pEC50.
assay_system: Muscarinic acetylcholine receptor M2 (Homo sapiens, UniProt P08172)
Sequence (P08172 whole entry): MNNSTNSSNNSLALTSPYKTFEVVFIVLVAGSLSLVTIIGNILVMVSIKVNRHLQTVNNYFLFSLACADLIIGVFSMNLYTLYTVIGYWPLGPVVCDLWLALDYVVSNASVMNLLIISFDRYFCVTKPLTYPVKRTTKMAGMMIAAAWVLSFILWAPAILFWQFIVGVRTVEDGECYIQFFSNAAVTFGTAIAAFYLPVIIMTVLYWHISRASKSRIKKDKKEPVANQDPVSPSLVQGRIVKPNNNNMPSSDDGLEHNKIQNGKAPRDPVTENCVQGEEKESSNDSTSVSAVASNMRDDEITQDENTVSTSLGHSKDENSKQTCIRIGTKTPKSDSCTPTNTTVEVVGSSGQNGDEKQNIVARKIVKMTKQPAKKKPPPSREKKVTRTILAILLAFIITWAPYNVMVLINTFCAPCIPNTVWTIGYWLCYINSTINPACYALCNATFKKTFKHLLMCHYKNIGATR
assay_info: Modulatory activity at M2 receptor (unknown origin) expressed in CHO-K1 cells assessed as cAMP production by TR-FRET analysis
pEC50: −log10 of the molar value.

Worked set:
| chemical_structure | observed_value |
| --- | --- |
| CCOC(=O)N1CC2(CC[C@@H](N3CCN(c4cc(F)cnc4-c4cnn(C(F)F)c4)CC3)C2)C1 | > 7.70 |
| CCOC(=O)N1CC2(CC[C@@H](N3CCN(c4cc(F)cnc4-c4ccc(=O)[nH]c4)CC3)C2)C1 | < 5.00 |
| CCOC(=O)N1CC2(CC[C@@H](N3CCN(c4cc(F)cnc4-c4cncc(OC)c4)CC3)C2)C1 | < 5.00 |
| CCOC(=O)N1CC2(CC[C@@H](N3CCN(c4cc(F)cnc4-c4cnn(C(C)C)c4)CC3)C2)C1 | 7.00 |
| CCOC(=O)N1CC2(CC[C@@H](N3CCC(O)(c4cc(F)cnc4-c4cnccn4)CC3)C2)C1 | < 5.00 |
| CCOC(=O)N1CC2(CC[C@@H](N3CCN(c4cc(F)cnc4-c4ccc(=O)n(C)c4)CC3)C2)C1 | < 5.00 |

*Q* Kindly indicate its recorded pEC50. Item: CCOC(=O)N1CC2(CC[C@@H](N3CCN(c4cccnc4-c4ccc(F)nc4)CC3)C2)C1
*A* < 5.00

*Q* Kindly indicate its recorded pEC50. Item: CCOC(=O)N1CC2(CC[C@@H](N3CCN(c4cc(F)cnc4-c4cscn4)CC3)C2)C1
*A* 7.00

*Q* Kindly indicate its recorded pEC50. Item: CCOC(=O)N1CC2(CC[C@H](N3CCC(O)(c4cc(F)cnc4-c4cnccn4)CC3)C2)C1
*A* < 5.00

*Q* Kindly indicate its recorded pEC50. Item: CCOC(=O)N1CC2(CC[C@@H](N3CCN(c4cc(F)cnc4-c4cncs4)CC3)C2)C1
*A* < 5.00

* * *

We begin with a simple list: items and their reported EC50.
assay_system: Muscarinic acetylcholine receptor M5 (Homo sapiens)
Sequence (P08912 whole entry): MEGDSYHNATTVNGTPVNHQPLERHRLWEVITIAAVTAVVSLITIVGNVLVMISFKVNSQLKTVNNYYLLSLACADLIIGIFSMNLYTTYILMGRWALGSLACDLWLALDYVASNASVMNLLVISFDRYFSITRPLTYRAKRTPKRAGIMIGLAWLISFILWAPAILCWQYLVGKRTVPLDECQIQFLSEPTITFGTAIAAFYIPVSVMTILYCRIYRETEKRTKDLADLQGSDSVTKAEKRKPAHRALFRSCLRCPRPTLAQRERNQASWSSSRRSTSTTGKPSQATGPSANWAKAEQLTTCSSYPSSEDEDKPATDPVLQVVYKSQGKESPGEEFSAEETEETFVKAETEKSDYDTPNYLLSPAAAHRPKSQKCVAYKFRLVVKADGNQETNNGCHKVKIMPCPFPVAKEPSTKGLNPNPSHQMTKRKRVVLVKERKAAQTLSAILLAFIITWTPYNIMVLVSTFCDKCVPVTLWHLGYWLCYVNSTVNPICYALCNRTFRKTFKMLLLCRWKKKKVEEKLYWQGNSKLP
assay_info: Modulatory activity at M5 receptor (unknown origin) expressed in CHO-K1 cells assessed as intracellular calcium flux incubated for 30 mins by Fluo-8 dye based FLIPR analysis

Worked set:
| chemical_structure | assay_system | observed_value |
| --- | --- | --- |
| CCOC(=O)N1CC2(CC[C@@H](N3CCN(c4cc(F)cnc4-c4cnn(C(F)F)c4)CC3)C2)C1 | Muscarinic acetylcholine receptor M5 (Homo sapiens) | > 10 µM |
| CCOC(=O)N1CC2(CC[C@@H](N3CCN(c4cc(F)cnc4-c4ccc(=O)n(C)c4)CC3)C2)C1 | Muscarinic acetylcholine receptor M5 (Homo sapiens) | > 10 µM |
| CCOC(=O)N1CC2(CC[C@@H](N3CCN(c4cccnc4-c4ccc(F)nc4)CC3)C2)C1 | Muscarinic acetylcholine receptor M5 (Homo sapiens) | 0.02 µM |
| CCOC(=O)N1CC2(CC[C@@H](N3CCN(c4cc(F)cnc4-c4cncc(OC)c4)CC3)C2)C1 | Muscarinic acetylcholine receptor M5 (Homo sapiens) | > 10 µM |
| CCOC(=O)N1CC2(CC[C@@H](N3CCN(c4cc(F)cnc4-c4ccc(=O)[nH]c4)CC3)C2)C1 | Muscarinic acetylcholine receptor M5 (Homo sapiens) | 0.02 µM |
| CCOC(=O)N1CC2(CC[C@@H](N3CCN(c4cc(F)cnc4-c4cccc(CO)c4)CC3)C2)C1 | Muscarinic acetylcholine receptor M5 (Homo sapiens) | > 10 µM |

*Q* Write down the reported EC50 (system: Muscarinic acetylcholine receptor M5 (Homo sapiens)) of CCOC(=O)N1CC2(CC[C@@H](N3CCN(c4cc(F)cnc4-c4cnn(C(C)C)c4)CC3)C2)C1
*A* > 10 µM

*Q* Write down the reported EC50 (system: Muscarinic acetylcholine receptor M5 (Homo sapiens)) of CCOC(=O)N1CC2(CC[C@@H](N3CCN(c4cc(F)cnc4-c4cncs4)CC3)C2)C1
*A* > 10 µM
